Assay: solvent given as SMILES
Conditions: in ClC(Cl)Cl
Quick rule for you: fluorescence lifetime at 1 ns or higher means 1 (yes), lower means 0 (no).

Solved entries:
{"MOLECULE": "Cc1cc(C)c(C2=C3C=CC=[N+]3[B-]3(c4ccc5ccc6cccc7ccc4c5c67)Oc4cc(O)cc5c6ccc(C)cc6c6cc2n3c6c45)c(C)c1 (stereo unspecified)", "DISCRETE_LABEL": "1 (yes)"}
{"MOLECULE": "COC(=O)C(Cc1ccc2oc(-c3ccc(N(C)c4ccccc4)cc3)nc2c1)NC(=O)OC(C)(C)C (stereo unspecified)", "DISCRETE_LABEL": "1 (yes)"}
{"MOLECULE": "COc1ccc(C2=c3sc(-c4ccc(OC)cc4)c(-c4ccc(OC)cc4)c3=[N+]3C2=Nc2c(-c4ccc(OC)cc4)c4sc(-c5ccc(OC)cc5)c(-c5ccc(OC)cc5)c4n2[B-]3(F)F)cc1", "DISCRETE_LABEL": "1 (yes)"}
{"MOLECULE": "CN(C)c1ccc(/C=C/c2cc[n+](CCCOCC(COCCC[n+]3ccc(/C=C/c4ccc(N(C)C)cc4)cc3)(COCCC[n+]3ccc(/C=C/c4ccc(N(C)C)cc4)cc3)COCCC[n+]3ccc(/C=C/c4ccc(N(C)C)cc4)cc3)cc2)cc1", "DISCRETE_LABEL": "0 (no)"}
{"MOLECULE": "FC(F)(F)c1ccc(/C=C/c2ccc(-c3nnc(-c4ccc(-c5cc6ccccc6s5)cc4)o3)cc2)cc1", "DISCRETE_LABEL": "0 (no)"}
{"MOLECULE": "CCCCCCCCCCCCCCCCOc1cc(C#Cc2ccc3ccccc3c2)c(OCCCCCCCCCCCCCCCC)cc1C#Cc1ccc(C=C(C#N)C#N)cc1", "DISCRETE_LABEL": "1 (yes)"}

Q. Hi, just wondering whether `C(#Cc1ccccc1)C(C#Cc1ccccc1)=Cc1ccc(C=C(C#Cc2ccccc2)C#Cc2ccccc2)cc1` shows fluorescence lifetime of 1 ns or higher.
A. 1 (yes)

Q. Same read-out for `CCCCCCC(CCCCCC)N1C(=O)c2cccc3c(-c4cc(OC)c(OC)c(OC)c4)ccc(c23)C1=O` ?
A. 1 (yes)

###

Assay: solvent given as SMILES
Settings: in C1CCOC1
Measured fluorescence lifetime, listed per entry.
Write the answer as a number in ns, unit excluded.

Reference set (2 entries):
{"COMPOUND": "CC1=CC(C)=[N+]2C1=C(c1ccccc1)c1c(C)cc(C)n1[B-]2(F)F", "fluorescence lifetime [ns]": 3.73}
{"COMPOUND": "Cc1cccc(Nc2ccccc2C(=O)O)c1C", "fluorescence lifetime [ns]": 4.91}

Q. fluorescence lifetime lookup needed for CN(CC(O)c1cccc(O)c1)c1ccc([N+](=O)[O-])c(C2CC(c3cccc4ccccc34)=NN2c2ccccc2)c1 (centres undefined) , thanks.
A. 3.56

Q. Same read-out for `CCCCCCCC(=O)Oc1ccc2c3cccc4c(OC(=O)CCCCCCC)ccc(c5cccc1c52)c43` ?
A. 4.35

Q. Same read-out for COC(=O)C(Cc1ccc2oc(-c3ccc4c(c3)c3ccccc3n4-c3ccccc3)nc2c1)NC(=O)OC(C)(C)C (centres undefined) ?
A. 1.73

Q. Same read-out for CCOC(=O)c1ccc(C2=CC3=c4cc(-c5ccc(C(=O)OCC)cc5)c5nc(C(F)(F)C(F)(F)C(F)(F)F)nc6c(-c7ccc(C(=O)OCC)cc7)cc(c4c65)C4=CC(c5ccc(C(=O)OCC)cc5)=C5N=C(C(F)(F)C(F)(F)C(F)(F)F)N=C2C5C43)cc1 (centres undefined) ?
A. 2.8

Q. Same read-out for `COc1cc2c(cc1/C=C/C(=C(C#N)C#N)c1ccccc1)c1ccccc1n2C` ?
A. 7.35

Q. Same read-out for `Cc1cc(C)c(C2=[N+]3C(=Cc4c(C)cc(C)n4[B-]3(F)F)c3ccccc32)[nH]1` ?
A. 3.75
